Data origin: PubChem BioAssay AID1159580

For each of the compounds below, state its normalized growth.
assay: chemical genetic growth profiling, strain panel (AID 1159580);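 note: tested at 20 µM; growth read once vehicle control cultures reached saturation at 30 °C; 1 = growth at the plate median or of vehicle wells; lower values mean less growth of the strain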; settings: S. cerevisiae deletion strains, growth OD, locus YNL067W, strain RPL9B, active compounds read low
Among all 5,500 compounds or so, about 2,000 (36%) were called active. Roughly 18% stayed inconclusive and do not appear here. Some of the results follow.
In your answer, state the number alone without any accompanying words.

Enquiry: Reported normalized growth for CC(=O)O[C@@H]1C=C[C@@]2(C)C(C[C@@H](OC(C)=O)[C@@]3(C)C4=CC(=O)O[C@@H](c5ccoc5)[C@]4(C)CCC23)C1(C)C (some centres not stated) : what is it?
Return: 1

Enquiry: Reported normalized growth for CC(=O)Oc1ccc(C(c2ccc(OC(C)=O)cc2)c2ccccn2)cc1 : what is it?
Return: 0.965

Enquiry: Reported normalized growth for C=C(C)C1CCC(C)(O)C2CC3OC3(C)C2C1 (configuration not stated) : what is it?
Return: 1.02

Enquiry: Reported normalized growth for CC(=O)O[C@@H]1CC2C(C)(C)[C@H](O)C=C[C@]2(C)C2CC[C@]3(C)C(=CC(=O)O[C@H]3c3ccoc3)[C@@]21C (some centres not stated) : what is it?
Return: 1.02

Enquiry: Reported normalized growth for N=C(N)N : what is it?
Return: 0.987

Enquiry: Reported normalized growth for CC(=O)Oc1ccc(O)cc1 : what is it?
Return: 0.966

Enquiry: Reported normalized growth for CC(=O)O[C@@H]1CC[C@@]2(C)C(C[C@@H](OC(C)=O)[C@@]3(C)C4=CC(=O)O[C@@H](c5ccoc5)[C@]4(C)CCC23)C1(C)C (some centres not stated) : what is it?
Return: 1

----------
assay: chemical genetic growth profiling, strain panel (AID 1159580); conditions: S. cerevisiae deletion strains, growth OD, locus YNL222W, strain SSU72
About 2,000 (36%) of roughly 5,500 compounds were called active. Not shown: some 18% with an inconclusive outcome. No stated cut-off is given here; in the data, active means normalized growth mostly below about 0.91 (no sharp cut-off); inconclusive means no clear call, values can overlap the other calls; inactive means mostly above about 0.92. The list shows a part of the results.
Output constraint: value belongs to active, inactive

Enquiry: // outcome(item) with item = CC(=O)c1ccc(Cl)c(N=Cc2cc(Cl)cc(Cl)c2O)c1
Return: inactive

Enquiry: // outcome(item) with item = O=C(Nc1ccc(F)cc1F)c1cc(Cl)c(-n2cccc2)c(Cl)c1
Return: inactive

Enquiry: // outcome(item) with item = Brc1ccc(-c2csc(-c3ccncc3)n2)cc1
Return: inactive

Enquiry: // outcome(item) with item = N#CSCC(=O)c1ccccc1
Return: active

Enquiry: // outcome(item) with item = CCOC(=O)/C(C#N)=C(\Nc1ccc(C(=O)OCC)cc1)SC
Return: inactive

Enquiry: // outcome(item) with item = NC(=S)N/N=C1/CCCc2ccccc21
Return: inactive

Enquiry: // outcome(item) with item = CCOC(=O)c1ccc(Cl)c(N=Cc2cc(Cl)cc(Cl)c2O)c1
Return: inactive

Enquiry: // outcome(item) with item = CSc1n[nH]c(-c2cc(C(C)(C)C)oc2C)c1C#N
Return: inactive

Enquiry: // outcome(item) with item = O=C(Nc1cccc(Cl)c1)O/N=C1\CCCc2occc21
Return: inactive

Enquiry: // outcome(item) with item = O=S(=O)(Nc1ccccc1Oc1ccccc1)c1ccc(-c2ccno2)s1
Return: inactive

Enquiry: // outcome(item) with item = CSc1sc(C(=O)Sc2ccccc2)cc1S(=O)(=O)C(C)C
Return: inactive

Enquiry: // outcome(item) with item = CC(=O)c1ccc(Cl)c(N=Cc2cc(Br)cc(Br)c2O)c1
Return: active

Enquiry: // outcome(item) with item = Cc1ccc(-c2csc(-c3ccncc3)n2)cc1
Return: inactive

Enquiry: // outcome(item) with item = O=[N+]([O-])c1cccc(C2CC(c3ccccc3)=Nc3ccccc3S2)c1 (centres undefined)
Return: inactive

----------
For each of the compounds below, state its normalized growth.
assay: chemical genetic growth profiling, strain panel (AID 1159580); settings: S. cerevisiae deletion strains, growth OD, locus YLR403W, strain SFP1, active compounds read low
Screen size: about 5,500 compounds; about 2,000 (36%) were called active. Not shown: some 18% with an inconclusive outcome. This is one part of the list.
In your answer, state the number alone without any accompanying words.

Enquiry: Reported normalized growth for Cc1ccc(-n2cccc2)c(NS(=O)(=O)c2ccc(-c3ccno3)s2)c1 : what is it?
Return: 0.915

Enquiry: Reported normalized growth for CC(C)(C)c1cc(C(=O)Nc2ccc3c(c2)OCO3)n(Cc2ccc(F)cc2)n1 : what is it?
Return: 0.906

Enquiry: Reported normalized growth for CSc1n[nH]c(-c2cc(C(C)(C)C)oc2C)c1C#N : what is it?
Return: 0.885

Enquiry: Reported normalized growth for OC(COc1ccc(F)cc1)(c1ccc(Cl)cc1)c1ccc(Cl)cc1 : what is it?
Return: 1

Enquiry: Reported normalized growth for O=C(Nc1ccc(F)cc1F)c1cc(Cl)c(-n2cccc2)c(Cl)c1 : what is it?
Return: 0.902

Enquiry: Reported normalized growth for O=C(Nc1cccc(Cl)c1)O/N=C1\CCCc2occc21 : what is it?
Return: 0.748

Enquiry: Reported normalized growth for Cc1onc(-c2c(F)cccc2Cl)c1/C(N)=N\OC(=O)c1ccc(C(C)(C)C)cc1 : what is it?
Return: 0.968

Enquiry: Reported normalized growth for CCOC(=O)/C(C#N)=C(\Nc1ccc(C(=O)OCC)cc1)SC : what is it?
Return: 0.954

Enquiry: Reported normalized growth for O=S(=O)(Oc1ccc(-c2csnn2)cc1)c1ccccc1Cl : what is it?
Return: 0.927

Enquiry: Reported normalized growth for Clc1ccc(SCc2ccsc2-c2ncns2)cc1 : what is it?
Return: 0.927

Enquiry: Reported normalized growth for O=S(=O)(Nc1ccccc1Oc1ccccc1)c1ccc(-c2ccno2)s1 : what is it?
Return: 0.891

Enquiry: Reported normalized growth for O=[N+]([O-])c1cccc(C2CC(c3ccccc3)=Nc3ccccc3S2)c1 (stereo not drawn) : what is it?
Return: 0.95

Enquiry: Reported normalized growth for CC(=O)c1ccc(Cl)c(N=Cc2cc(Br)cc(Br)c2O)c1 : what is it?
Return: -0.00302

----------
For each of the molecules below, state its normalized growth.
assay: chemical genetic growth profiling, strain panel (AID 1159580);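 note: tested at 20 µM; growth read once vehicle control cultures reached saturation at 30 °C; 1 = growth at the plate median or of vehicle wells; lower values mean less growth of the strain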; settings: S. cerevisiae deletion strains, growth OD, locus YDR502C, strain sam2, active compounds read low
About 2,000 (36%) of roughly 5,500 compounds were called active. Not shown: some 18% with an inconclusive outcome. This is one part of the list.
In your answer, state the number alone without any accompanying words.

Enquiry: Reported normalized growth for CC(C)CCCC(C)C1CCC2C3CC[C@H]4C[C@@H](O)CC[C@]4(C)C3CC[C@]12C (stereo partly drawn) : what is it?
Return: 1.03

Enquiry: Reported normalized growth for CNNC : what is it?
Return: 1.01

Enquiry: Reported normalized growth for Oc1c(Cl)cc(Cl)cc1Sc1cc(Cl)cc(Cl)c1O : what is it?
Return: 0.985

----------
assay: chemical genetic growth profiling, strain panel (AID 1159580);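 note: tested at 20 µM; growth read once vehicle control cultures reached saturation at 30 °C; 1 = growth at the plate median or of vehicle wells; lower values mean less growth of the strain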; details: S. cerevisiae deletion strains, growth OD, locus YOL012C, strain htz1
Among all 5,500 compounds or so, about 2,000 (36%) were called active. Not shown: some 18% with an inconclusive outcome. This is one part of the list.
endpoint: normalized growth
In your answer, state the number alone without any accompanying words.

Enquiry: Reported normalized growth for COc1c(C)c2c(c(C)c1Cl)Oc1c(Cl)c(OC)c(Cl)c(C)c1C(=O)O2 : what is it?
Return: 0.785

Enquiry: Reported normalized growth for COC(=O)c1c(OC)cc2c(c1C)Oc1c(Cl)c(OC(C)=O)c(Cl)c(C)c1C(=O)O2 : what is it?
Return: 1.01

Enquiry: Reported normalized growth for Cc1cc(=O)oc2cc(O)c(O)cc12 : what is it?
Return: 1.25

----------
assay: chemical genetic growth profiling, strain panel (AID 1159580);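 note: tested at 20 µM; growth read once vehicle control cultures reached saturation at 30 °C; 1 = growth at the plate median or of vehicle wells; lower values mean less growth of the strain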; settings: S. cerevisiae deletion strains, growth OD, locus YOR136W, strain idh2, active compounds read low
Hit rate of the full screen: of about 5,500 compounds, about 2,000 (36%) were called active. Not shown: some 18% with an inconclusive outcome. Some of the results follow.
endpoint: normalized growth
In your answer, state the number alone without any accompanying words.

Enquiry: Reported normalized growth for C/C1=C\CC(C)(C)/C=C/CC2(C)OC2CC1 (stereo not given) : what is it?
Return: 1

Enquiry: Reported normalized growth for Nc1ccc(S(=O)(=O)NC(=O)c2ccccc2)cc1 : what is it?
Return: 1.01

Enquiry: Reported normalized growth for CC1(C)CC2C1CC[C@]1(CBr)CCC3C(CC(=O)O)C(=O)O[C@@]32C1 (stereo not given in full) : what is it?
Return: 0.994

Enquiry: Reported normalized growth for CC(C)=CCCC(C)[C@@H]1CC[C@]2(C)C3=C(CC[C@@]12C)C1(C)CC[C@H](O)C(C)(C)C1CC3 (stereo not given in full) : what is it?
Return: 1.02

Enquiry: Reported normalized growth for CC(=O)O[C@H]1CC[C@@]2(C)C(C[C@@H](OC(C)=O)[C@@]3(C)C4=CC(=O)O[C@@H](c5ccoc5)[C@]4(C)CCC23)C1(C)C (stereo not given in full) : what is it?
Return: 0.992

Enquiry: Reported normalized growth for CCOC(=O)[C@H](CCc1ccccc1)N[C@@H](C)C(=O)N1CCC[C@H]1C(=O)O : what is it?
Return: 1.02

Enquiry: Reported normalized growth for CCCOc1ccc2nc(NC(=O)OC)[nH]c2c1 : what is it?
Return: 0.995

Enquiry: Reported normalized growth for CC(=O)O[C@@H]1CC[C@@]2(C)C(C[C@@H](OC(C)=O)[C@@]3(C)C4=CC(=O)O[C@@H](c5ccoc5)[C@]4(C)CCC23)C1(C)C (stereo not given in full) : what is it?
Return: 0.996

Enquiry: Reported normalized growth for CN(C)CCCN1c2ccccc2Sc2ccccc21 : what is it?
Return: 1.02

Enquiry: Reported normalized growth for CC(=O)Oc1ccc(/C=C/c2cc(OC(C)=O)cc(OC(C)=O)c2)cc1 : what is it?
Return: 1.01

Enquiry: Reported normalized growth for N=C(N)N : what is it?
Return: 0.986

Enquiry: Reported normalized growth for CC(=O)O[C@H]1CCC2(C)C3=C(CCC2C1(C)C)[C@@]1(C)CC[C@@H](C(C)CCC=C(C)C)[C@]1(C)CC3 (stereo not given in full) : what is it?
Return: 1.04

Enquiry: Reported normalized growth for CC(=O)Oc1cccc(O)c1 : what is it?
Return: 1.02

Enquiry: Reported normalized growth for CS(=O)(=O)Nc1ccc([N+](=O)[O-])cc1Oc1ccccc1 : what is it?
Return: 0.977

Enquiry: Reported normalized growth for O=C(NCO)c1cccnc1 : what is it?
Return: 0.982

Enquiry: Reported normalized growth for NC1=NCCN1CC(=O)O : what is it?
Return: 0.986

Enquiry: Reported normalized growth for CC(C)=CCCC(C)C1CC[C@@]2(C)C3=C(CC[C@]12C)C1(C)CC[C@H](O)C(C)(C)C1CC3 (stereo not given in full) : what is it?
Return: 0.998

Enquiry: Reported normalized growth for CC(=O)O[C@@H]1CC2C(C)(C)[C@H](O)C=C[C@]2(C)C2CC[C@]3(C)C(=CC(=O)O[C@H]3c3ccoc3)[C@@]21C (stereo not given in full) : what is it?
Return: 1

Enquiry: Reported normalized growth for CC(=O)N[C@@H](Cc1c[nH]c2ccccc12)C(N)=O : what is it?
Return: 1.01

Enquiry: Reported normalized growth for Cc1cc(=O)oc2cc(O)c(O)cc12 : what is it?
Return: 1

Enquiry: Reported normalized growth for CC(C)=CCc1c2c(c3occ(-c4ccc(O)c(O)c4)c(=O)c3c1O)C=CC(C)(C)O2 : what is it?
Return: 0.837

Enquiry: Reported normalized growth for CN[C@@H]1[C@H](O)[C@H](NC)[C@H]2O[C@@]3(O)C(=O)C[C@@H](C)O[C@H]3O[C@@H]2[C@H]1O : what is it?
Return: 1.02

Enquiry: Reported normalized growth for CC(C)c1ccc2c(c1)CCC1C(C)(C(N)=O)CCCC21C (stereo not given) : what is it?
Return: 0.962

Enquiry: Reported normalized growth for C[C@H](CCC(=O)O)[C@H]1CCC2C3C(=O)CC4CC(=O)CC[C@]4(C)C3CC(=O)[C@@]21C (stereo not given in full) : what is it?
Return: 1

Enquiry: Reported normalized growth for CC(=O)OCC(=O)[C@@]1(O)[C@H](C)CC2C3CCC4=CC(=O)C=C[C@]4(C)[C@@]3(F)[C@@H](O)C[C@@]21C (stereo not given in full) : what is it?
Return: 0.994
